Target: T1, cynomolgus monkey CD8A on primary cynomolgus monkey CD8+ T cells (cynomolgus monkey, UniProt P01732 23-235 (human entry))
T1 construct: also called Cyno CD8alpha
T1 sequence (P01732 other isoform, or with tags, fused parts or gaps limits assumed): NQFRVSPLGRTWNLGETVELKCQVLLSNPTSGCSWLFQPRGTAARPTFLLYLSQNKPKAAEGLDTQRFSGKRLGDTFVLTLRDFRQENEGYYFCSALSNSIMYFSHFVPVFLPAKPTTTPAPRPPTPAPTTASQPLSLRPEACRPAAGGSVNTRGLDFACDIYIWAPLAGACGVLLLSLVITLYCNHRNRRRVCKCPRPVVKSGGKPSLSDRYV
Experiment: flow cytometry, cyno CD8+ T cells, 2 uM FN3
MEASURED ENDPOINT: Cyno T-cell Binding 2 uM (MFI)

The following binders have reported results that may help.
BINDER: P282AR9P1356_D3 (designed binder, FN3 domain) LPAPKNLVVSRVTEDSARLSWTRHETSFDSFLIQYRESEKVGEAIVLTVPGSERSYDLTGLKPGTEYTVSIYGVVVEYDAAGNPKYSNPLSAIFTT
Cyno T-cell Binding 2 uM (MFI): 13900
--
BINDER: P283BR9P1363_D11 (designed binder, FN3 domain) LPAPKNLVVSRVTEDSARLSWNKKHDGQPTFDSFLIQYQESEKVGEAIVLTVPGSERSYDLTGLKPGTEYTVSIYGVDVVYEGSYPASSNPLSAIFTT
Cyno T-cell Binding 2 uM (MFI): 20600
--
BINDER: P283AR9P1362_A4 (designed binder, FN3 domain) LPAPKNLVVSRVTEDSARLSWIGHDSGFDSFLIQYQESEKVGEAIVLTVPGSERSYDLTGLKPGTEYTVSIYGVDVKYDIDSRPISSNPLSAIFTT
Cyno T-cell Binding 2 uM (MFI): 21200
--
BINDER: P282DR9P1359_C11 (designed binder, FN3 domain) LPAPKNLVVSRVTEDSARLSWTAPDAAFDSFKIAYPEFPPPGEAIVLTVPGSERSYDLTGLKPGTEYYVIIIGVKGGTDSWPLSAIFTT
Cyno T-cell Binding 2 uM (MFI): 19900
--
BINDER: P282BR9P1357_C4 (designed binder, FN3 domain) LPAPNNLVVSRVTEDSARLSWPFVSQNKPHFDSFLIQYQESEKVGEAIVLTVPGSERSYDLTGLKPGTEYTVSIYGVDVKWEGNRPVASNPLSAIFTT
Cyno T-cell Binding 2 uM (MFI): 41600

1. P282CR9P1358_C2 (designed binder, FN3 domain) LPAPKNLVVSRVTEDSARLSWTAPDAAFDSFKIAYPEWPSNGEAIVLTVPGSERSYDLTGLKPGTEYAVFIWGVKGGAFSNPLSAIFTT
2. P282AR9P1356_A6 (designed binder, FN3 domain) LPAPKNLVVSRVTEDSARLSWSKTDSSFDSFLIQYQESEKVGEAIVLTVPGSERSYDLTGLKPGTEYTVSIYGVDVVYIEGNPVFSNPLSAIFTT
3. P282BR9P1357_A9 (designed binder, FN3 domain) LPAPKNLVVSRVTEDSARLSWKANRTTDLHFDSFLIQYQESEKVGEAIVLTVPGSERSYDLTGLKPGTEYTVSIYGVDVQYDGQQPLYSNPLSAIFTT
Ask: Rank order required: Cyno T-cell Binding 2 uM (MFI), descending. Ranked list of labels, please, in the requested order.
Reply: 1, 2, 3

A. P283AR9P1362_G11 (designed binder, FN3 domain) LPAPKNLVVSRVTEDSARLSWRKEATSFDSFLIQYQESEKVGEAIVLTVPGSERSYDLTGLKPGTEYTVSIYGVDVKYDIDSRPISSNPLSAIFTT
B. P282DR9P1359_F3 (designed binder, FN3 domain) LPAPKNLVVSRVTEDSARLSWTAPDAAFDSFYITYPEWPVQGEAIVLTVPGSERSYDLTGLKPGTEYWVIIYGVKGGTESEPLSAIFTT
Ask: Which value of Cyno T-cell Binding 2 uM (MFI) is numerically greater: that of A or that of B ? Identify your pick by its label.
Reply: B
(B: 48900 MFI, A: 32500 MFI)
